Source listed as paper PMC12040169.

# PROTOCOL_NOTES: in vitro
# EXPERIMENTAL_CONTEXT: human, hela cells, % viability
The reader will find reported viability at 28.5 h, 10 µM values listed item by item below.
Your answer is read as %, so omit the unit and give the number.

Please review the following examples before continuing.
| COMPOUND | viability at 28.5 h, 10 µM (%) |
| --- | --- |
| NC(=O)CCn1c(=S)n(CCC(N)=O)c2ccccc21 | 86.2 |
| CC(c1cccc(F)c1)n1cc(C(=O)NCCc2ccco2)nn1 (stereo not shown) | 102 |
| CC1(C)Cc2nc3sc4c(=O)n(CC(=O)NCCc5ccccc5)cnc4c3cc2CS1 | 97.8 |
| Cc1nc(COc2ccc(Cl)cc2)sc1C(=O)N1CCC1 | 88.5 |
| OC1(c2cccnc2F)CCN(Cc2cccc(F)c2)CC1 | 85.5 |

Request: I have this compound here, Cc1ccc(C(=O)N2CCN(CC(=O)N3CCCC3)CC2)cc1 , and I need its recorded viability at 28.5 h, 10 µM.
Result: 110

Request: So what does the record say about viability at 28.5 h, 10 µM for Cc1nc2ccc(C(=O)NCCCc3ccccn3)cc2s1 ?
Result: 88.2

Request: Could you tell me which viability at 28.5 h, 10 µM is on file for CN1CCN(CCCNC(=O)N(CCC#N)C2CCCCC2)CC1 ?
Result: 112

Request: Quick one: viability at 28.5 h, 10 µM for O=C(CC1Sc2ccccc2NC1=O)Nc1ccc(C(F)(F)F)cc1 (stereo not shown) ?
Result: 88.6

====

# PROTOCOL_NOTES: in vitro
# EXPERIMENTAL_CONTEXT: human, hela cells, % viability
Here, each record is paired with measured viability at 28.5 h, 10 µM data.
Numeric answer only, unit % assumed.

The cases that follow already have their viability at 28.5 h, 10 µM on record.
| MOLECULE | viability at 28.5 h, 10 µM (%) |
| --- | --- |
| CCCCNCCn1cnc2c(N)ncnc21 [CBK057447] | 116 |
| OCC1CCC(O)C(CO)N1 (stereo not shown) [CBK022827C] | 86.5 |
| O=C(NCC1CCCO1)c1ccc(NC(=O)C2CC=CCC2C(=O)O)cc1 (stereo not shown) [CBK266335] | 95 |

Request: Please look up its viability at 28.5 h, 10 µM: CCCc1[nH]nc(O)c1Cc1ccc(Cl)cc1 [CBK075013]
Result: 90

Request: Item CC(C)Nc1nc2ccccc2nc1OCc1ccsc1 [CBK115660] has what recorded viability at 28.5 h, 10 µM?
Result: 104

Request: viability at 28.5 h, 10 µM for O=C(Nc1cc(-c2nc3ncccc3o2)ccc1Cl)c1cccnc1 [CBK269700] ?
Result: 90.8

Request: Could you tell me which viability at 28.5 h, 10 µM is on file for Cc1cc(NC(=O)c2ccc(N3C(=O)CCC3=O)cc2)nc2c1c(=O)oc1ccccc12 [CBK291205] ?
Result: 114

Request: // lookup viability at 28.5 h, 10 µM for CC[C@@H](Cn1nc(-c2ccc(F)c(F)c2)ccc1=O)NC(=O)C1CC1 [CBK282313]
Result: 90.6

Request: State the recorded viability at 28.5 h, 10 µM for this entry: CCc1ccccc1C(=O)N1CCCCC1CC (stereo not shown) [CBK081556]
Result: 81.9

Request: Entry under review: CCN(CC)S(=O)(=O)c1csc(C(=O)Nc2cccc([N+](=O)[O-])c2)c1 [CBK264505] . Reported viability at 28.5 h, 10 µM?
Result: 91.3

====

# PROTOCOL_NOTES: in vitro
# EXPERIMENTAL_CONTEXT: human, hela cells, % viability
Listing: viability at 28.5 h, 10 µM of selected compounds
Answer with a number only, understood to be in %.

Reference set, count: 5
| COMPOUND | READING_UNIT | REPORTED_VALUE |
| --- | --- | --- |
| Cc1nn(C)c(C)c1CN1CCN(C(=S)Nc2ccc(S(N)(=O)=O)cc2)CC1 [CBK267030] | % | 94.1 |
| CC(NC(=O)N(Cc1ccc(-c2ccccc2)cc1)CC(C)(C)CN)c1cccc2ccccc12 (stereo not drawn) [CBK002426C] | % | 50.9 |
| Cc1ccc(-n2c(=O)[nH]c3c(C(=O)Nc4ccccc4)cn(C)c3c2=O)cc1 [CBK287651] | % | 93.9 |
| COc1ccc(-c2cc(C(=O)NCCc3c[nH]cn3)cnc2-c2ccc(F)cc2)cn1 [CBK036675] | % | 112 |
| O=C1NC2(CCN(C(=O)Cc3c(F)ccc(F)c3F)CC2)Oc2ccc(-c3ccoc3)cc21 [CBK115848] | % | 83.2 |

Request: Item CC[C@H](Cn1ncc2ccccc2c1=O)NC(=O)C(C)(C)C [CBK284304] has what recorded viability at 28.5 h, 10 µM?
Result: 90.2

Request: Recorded viability at 28.5 h, 10 µM of COc1ccc(C(NC(=O)C2CCN(C(=O)OCc3ccccc3)CC2)c2ccccc2C)cn1 (stereo not drawn) [CBK059726] , please.
Result: 91.4

Request: Which viability at 28.5 h, 10 µM value is on record for CCOc1ccc(CC(=O)N2CCC(c3ccncc3)CC2)cc1 [CBK283596] ?
Result: 87.8

Request: Fill in the blank: the reported viability at 28.5 h, 10 µM of COc1cccn(CC(=O)N(C)CCc2scnc2C)c1=O [CBK306726] is ____.
Result: 94.2

====

# PROTOCOL_NOTES: in vitro
# EXPERIMENTAL_CONTEXT: human, hela cells, % viability
ASSAY_ENDPOINT: viability at 28.5 h, 10 µM (%)
Give your result in % as a bare value.

Some entries whose results are on file:
| MOLECULE | viability at 28.5 h, 10 µM / % |
| --- | --- |
| Cc1cccn2c(=O)cc(CN3CCC(n4ccnc4)CC3)nc12 | 92.3 |
| CC(=O)NCCNC(=O)c1cnc(-c2ccc(Cl)cc2)c(-c2ccc(O)cc2)c1 | 101 |
| O=C(c1cccs1)N1CC(n2nc(-c3cccs3)ccc2=O)C1 | 97.3 |

Request: Data request, read-out viability at 28.5 h, 10 µM, for CC(C)CC12CN3CCN(CC(C3)/C1=N\N=C1/C3CN4CCN(C3)CC1(CC(C)C)C4)C2
Result: 99.1

Request: Reported viability at 28.5 h, 10 µM, molecule O=C(NCc1csc2c1CCCC2)N1CCCC(c2cc(O)ncn2)C1 (stereo not drawn) : ____
Result: 99.3

Request: Name the reported viability at 28.5 h, 10 µM value associated with the molecule O=C(NCCCn1ccnn1)c1cccc(S(=O)(=O)N2CCCCC2)c1
Result: 104

====

Each record here notes measured viability at 28.5 h, 10 µM.
# PROTOCOL_NOTES: in vitro
# EXPERIMENTAL_CONTEXT: human, hela cells, % viability
Respond with the bare value in %.

Solved cases (4 shown):
| MOL | viability at 28.5 h, 10 µM, % |
| --- | --- |
| COc1ccc(-c2nnc3ccc(SCc4ccccn4)nn23)cc1OC | 97.4 |
| CC(C)Nc1cc(OCc2ccc(F)cc2)ncn1 | 103 |
| FC(F)(F)c1ccnc(OCc2cccnc2)c1 | 99.6 |
| CCCCN(C=O)c1c(CC)nc2ccc(C(=O)Nc3ccc(Cl)c(Cl)c3)cn12 | 84.1 |

Proceeding to the next compound to report its viability at 28.5 h, 10 µM.
Request: Give the measured viability at 28.5 h, 10 µM of O=C(Cn1nnc2ccccc21)Nc1ccc(Cl)cn1 .
Result: 97.9

====

# PROTOCOL_NOTES: in vitro
# EXPERIMENTAL_CONTEXT: human, hela cells, % viability
ASSAY_ENDPOINT: viability at 28.5 h, 10 µM (%)
Give a bare numeral; the unit % is implied.

Request: Fill in the blank: the reported viability at 28.5 h, 10 µM of CCn1c(N2CCC(C(=O)NC(C)C)CC2)nc2ccccc21 [CBK283982] is ____.
Result: 83.8

Request: Record request: viability at 28.5 h, 10 µM value, item COc1ccc(CCCC(=O)N2CCC(c3c(C(N)=O)sc4ccccc34)C2)cc1C (stereo not drawn) [CBK285848]
Result: 94

Request: GET /values?readout=viability at 28.5 h, 10 µM&item= CCN(Cc1ccncc1)C(=O)Nc1ccc(N(CC)CC)cc1 [CBK155141]
Result: 90.3

Request: Field request: viability at 28.5 h, 10 µM | item: Cn1c2ccccc2c2nnc(SCc3ccc4nonc4c3)nc21 [CBK267515]
Result: 89.9

Request: Item CNC(=O)c1ccc(-c2ccccc2C)nc1NCCOC [CBK106007] has what recorded viability at 28.5 h, 10 µM?
Result: 99.7

Request: Requested read-out: viability at 28.5 h, 10 µM. Entry: Cc1ccc2c(c1)OC(C)(C)CC2NS(C)(=O)=O (stereo not drawn) [CBK307620]
Result: 81.5

Request: Reported viability at 28.5 h, 10 µM, compound CCOC(=O)C1=C(C)N(CC)C(=O)NC1c1cc(OC)c(OC)c(OC)c1 (stereo not drawn) [CBK091912] : ____
Result: 98.3

Request: I would be grateful if you could share the reported viability at 28.5 h, 10 µM for COc1cc(/C=C2\SC(=S)N(CC(=O)NNC(=O)c3ccccc3O)C2=O)ccc1O [CBK261301] .
Result: 94

Request: For the compound shown here, CS(=O)(=O)Cc1cccc(C(=O)Nc2ccc(Oc3ccccc3)cc2)c1 [CBK297111] , give the reported viability at 28.5 h, 10 µM.
Result: 87.5
